target: T1, monkey GPC3-His protein (monkey); experiment: ELISA, monkey GPC3-His coated;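 note: Plate-coated antigen at 1 µg/mL, antibody binding 2 h at 37 °C, detected with HRP-labeled secondary antibody and TMB, absorbance at 450 nm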
T1 construct: Bought recombinant protein; also called monkey GPC3 protein
result_type: OD450 at 0.001 nM (OD450)
Answer with a number only, understood to be in OD450.

[
  {
    "binder": "F4.18.4 (antibody, human IgG1, kappa, V domains shown, Human-murine chimeric antibody) VH: QVQLHQSGAEMAKPGASVNLSCKTSGFTFTDYGISWVKQRTRQGLEWIGDIYPRHINIYYNEKFKDKATLTADRSSSTAYMELRSMTSEDSAVYFCARRGTTGRGALDYWGQGTSLTVSS VL: DILLTQSPAILSVSPGERVSFSCRASQSIGTSIHWYQQRTNGSPRLLIKYAFESISGIPSRFGGSGSRTDFTLTINSVESEDIADYYCQQTYNWPYTFGGGTKLEIKR",
    "unit_annotation": "OD450",
    "OD450 at 0.001 nM": 0.12
  }
]

Okay, now this binder:
In: For the binder shown here, F1.83.6 (antibody, human IgG1, kappa, V domains shown, Human-murine chimeric antibody) VH: QVQLQQSGPELVKPGASVKISCKASGYAFSSSWMNWVKQRPGKGLEWIGRIYPGDGDTNYNGRFKGKATLTVDKSSSTAYMQLSSLTSEDSAVYFCARGGVFTMALDHWGQGTTLTVSS VL: DIQMTQSPSSLSASLGGKVTITCKASQDINKYIAWYQHKPGKGPRLLIHYTSTLQPGIPSRFSGSGSGRDYSFSISNLEPEDIATYYCLQYDNLFTFGGGTKLEIKR , give the reported OD450 at 0.001 nM.
Out: 0.05
